# Test system: UACC903
# method_notes: MTT proliferation assay, single agent
# Type: cell-based
# measurement_parameters: Homo sapiens, UACC-903, Melanoma, BRAF V600E, 72 h, mean of several independent experiments
metric_name: IC50 (µM)
Kindly answer with a numeric value in µM, unit omitted.

Query IC50 for `Cn1c(=O)c(-c2c(Cl)cccc2Cl)cc2c(N)nc(Nc3ccccc3)nc21`
3.35

----------
# Test system: CD74-ROS1 (G2032)
# method_notes: MTT proliferation assay, single agent
# Assay type: cell-based
# measurement_parameters: Lung ADC, ROS1 translocated, 72 h, mean of several independent experiments
metric_name: IC50 (µM)
Kindly answer with a numeric value in µM, unit omitted.

Query IC50 for Cn1c(=O)c(-c2c(Cl)cccc2Cl)cc2c(N)nc(Nc3ccccc3)nc21 [Compound (1)]
2

----------
# Test system: H3122 Cells
# method_notes: MTT cell viability assay, combinations (Chou-Talalay method)
# Assay type: cell-based
# measurement_parameters: Homo sapiens, NCI-H3122, H3122 cells; TKI in combination with compound (1); read-out: Combination TKI IC50
metric_name: IC50 (nM)
Kindly answer with a numeric value in nM, unit omitted.

Query IC50 for `CCc1cc2c(cc1N1CCC(N3CCOCC3)CC1)C(C)(C)c1[nH]c3cc(C#N)ccc3c1C2=O`
15

----------
# Test system: H2228
# method_notes: MTT proliferation assay, single agent
# Type: cell-based
# measurement_parameters: Homo sapiens, NCI-H2228, Lung ADC, ALK-EML4 (v3), 72 h, mean of several independent experiments
metric_name: IC50 (nM)
Kindly answer with a numeric value in nM, unit omitted.

Query IC50 for Cn1c(=O)c(-c2c(Cl)cccc2Cl)cc2c(N)nc(Nc3ccccc3)nc21 [Compound (1)]
1360

----------
# System: L239R+T654M
# method_notes: MTT proliferation assay, single agent
# Assay type: cell-based
# measurement_parameters: SCC Lung, DDR2 mutated, 72 h, mean of several independent experiments
metric_name: IC50 (nM)
Kindly answer with a numeric value in nM, unit omitted.

Query IC50 for `Cn1c(=O)c(-c2c(Cl)cccc2Cl)cc2c(N)nc(Nc3ccccc3)nc21`
600

----------
# Tested on: H3122
# method_notes: MTT proliferation assay, single agent
# Format: cell-based
# measurement_parameters: Homo sapiens, NCI-H3122, Lung ADC, ALK-EML4 (v1), 72 h, mean of several independent experiments
# Protocol: The compound of formula (1) was tested using a Thiazolyl Blue Tetrazolium Bromide (MTT) proliferation assay in a panel of tumor cell lines of different origins. […] Cell viability in response to single agent treatment was assessed by the Thiazolyl Blue Tetrazolium Bromide (MTT) (Sigma, St Louis, MO) assay. […] Cell viability was determined by measuring the absorbance at 492 nm, using a microplate reader (BioWhittaker, Walkersville, MD). […]
metric_name: pIC50
Quick note: pIC50 means taking -log10 of the concentration in moles per liter.

Fetch value of pIC50 on H3122 for `Cn1c(=O)c(-c2c(Cl)cccc2Cl)cc2c(N)nc(Nc3ccccc3)nc21` .
5.87

----------
# System: PC3
# method_notes: MTT proliferation assay, single agent
# Type: cell-based
# measurement_parameters: Homo sapiens, PC-3, Prostate ADC, DDR2 wt, 72 h, no standard error printed
metric_name: IC50 (µM)
Kindly answer with a numeric value in µM, unit omitted.

Query IC50 for `Cn1c(=O)c(-c2c(Cl)cccc2Cl)cc2c(N)nc(Nc3ccccc3)nc21`
3.4

----------
# System: PC9-GR3
# method_notes: MTT proliferation assay, single agent
# Format: cell-based
# measurement_parameters: Lung ADC, EGFR ex19, 72 h, mean of several independent experiments
metric_name: IC50 (nM)
Kindly answer with a numeric value in nM, unit omitted.

Query IC50 for `Cn1c(=O)c(-c2c(Cl)cccc2Cl)cc2c(N)nc(Nc3ccccc3)nc21`
880

----------
Catalogue of pIC50 readings, one per entry.
# Test system: HCC78 cells
# method_notes: MTT cell viability assay, combinations (Chou-Talalay method)
# Assay type: cell-based
# measurement_parameters: Homo sapiens, HCC78, 72 h, HCC78 cells; tyrosine kinase inhibitor as single agent; 72 h; read-out: TKI IC50
Quick note: pIC50 means taking -log10 of the concentration in moles per liter.

COc1cc2c(Oc3ccc(NC(=O)C4(C(=O)Nc5ccc(F)cc5)CC4)cc3F)ccnc2cc1OCCCN1CCOCC1    6.43

Then this compound:
Query pIC50 for `C[C@@H](Oc1cc(-c2cnn(C3CCNCC3)c2)cnc1N)c1c(Cl)ccc(F)c1Cl`
5.14

----------
# System: HCC78 cells
# method_notes: MTT cell viability assay, combinations (Chou-Talalay method)
# Type: cell-based
# measurement_parameters: HCC78 cells; tyrosine kinase inhibitor as single agent; 72 h; read-out: TKI IC50
metric_name: pIC50
Quick note: pIC50 means taking -log10 of the concentration in moles per liter.

Fetch value of pIC50 on HCC78 cells for `C[C@@H](Oc1cc(-c2cnn(C3CCNCC3)c2)cnc1N)c1c(Cl)ccc(F)c1Cl` .
5.15
